target: T1, human ROR1 Frizzled-His domain protein (amino acid sequence at positions 165-305, Acrobiosystems, RO1-H5222) (human, UniProt Q01973 165-305); experiment: SPR Biacore T200, method as Example 6 (antibody Fc-captured, antigen as analyte)
T1 construct: also called Human ROR1 Frizzled-His protein; not shown: His tag
T1 sequence (Q01973 165-305 limits assumed, form in doubt): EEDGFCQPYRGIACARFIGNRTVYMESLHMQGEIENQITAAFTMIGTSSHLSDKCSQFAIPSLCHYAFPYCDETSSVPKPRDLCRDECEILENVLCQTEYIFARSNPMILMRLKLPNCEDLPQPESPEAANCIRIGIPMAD
Measured quantity: koff (s⁻¹)
Enter your answer as a number in s⁻¹; do not include the unit.

Binder	koff [s⁻¹]
single domain antibody AHP15662-VHH4-Variant1 (Fc fusion, Fc format is inferred; not shown: human IgG1 Fc; vector and li) EVQLVESGGGLVQPGGSLRLSCAASYYISRFYAVGWYRQAPGKQRELVARISSGGWTYYADSVKGRFTISIDNSKNTLYLQMNSLRAEDTAVYYCNARNLWGQGTLVTVSS	0.00701
single domain antibody AHF21720 (Fc fusion, Fc format is inferred; not shown: human IgG1 Fc; vector and li) EVQLVESGGGLVQPGGSLRLSCAASGYISRFYAMGWYRQAPGKQRELVARISSLGWTYYADSVKGRFTISIDNSKNTLYLQMNSLRAEDTAVYYCNARNLWGQGTLVTVSS	0.00124
single domain antibody AHP15662-VHH4-Variant2 (Fc fusion, Fc format is inferred; not shown: human IgG1 Fc; vector and li) EVQLVESGGGLVQPGGSLRLSCAASYFISRFYAVGWYRQAPGKQRELVARISSGGWTYYADSVKGRFTISIDNSKNTLYLQMNSLRAEDTAVYYCNARNLWGQGTLVTVSS	0.0119

Turning now to a further record.
(Q) Give its koff value. Item: humanized single domain antibody AHP15662-VHH4 (Fc fusion, Humanized VHH expressed from pcDNA3.4-Fc (Human IgG1); not shown: human IgG1 Fc of the pcDNA3.4-Fc (Human IgG1) expression vector) EVQLVESGGGLVQPGGSLRLSCAASGSISRFYAVGWYRQAPGKQRELVARISSGGSTYYADSVKGRFTISIDNSKNTLYLQMNSLRAEDTAVYYCNARNLWGQGTLVTVSS
(A) 0.103
